experimental_target: human CB2 receptors (Homo sapiens (Human), UniProt P34972)
Sequence (P34972 whole entry): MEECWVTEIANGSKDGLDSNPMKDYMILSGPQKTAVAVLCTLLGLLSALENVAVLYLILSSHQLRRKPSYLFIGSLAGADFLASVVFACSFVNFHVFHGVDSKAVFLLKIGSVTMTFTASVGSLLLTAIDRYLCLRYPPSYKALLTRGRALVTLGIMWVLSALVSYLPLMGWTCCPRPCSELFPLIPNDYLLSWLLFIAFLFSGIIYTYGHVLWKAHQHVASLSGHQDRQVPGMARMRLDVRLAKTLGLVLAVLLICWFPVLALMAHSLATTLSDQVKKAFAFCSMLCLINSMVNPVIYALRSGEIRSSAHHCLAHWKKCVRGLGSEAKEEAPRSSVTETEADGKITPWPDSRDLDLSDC
measurement_notes: human CB2 radioligand binding assay ([3H]CP 55,940 competition)
setup_conditions: HEK293 membranes, 0.5 nM [3H]CP 55,940; read-out: human CB2 (Ki)
pKi: −log10 of the molar value.
Use 8 as the dividing line for pKi, with the line itself on the label 1 side and lower values as label 0.

> print(dat)
                          structure.notation  class.assignment
 1  CCCCn1nc(C(C)(C)C)s/c1=N\C(=O)c1cc(C(F)(F)F)ccc1ON=C(N)c1ccccn1           label 0
 2  CCCCn1nc(C(C)(C)C)s/c1=N\C(=O)c1cc(C(F)(F)F)ccc1ONC(=O)C(C)(C)C           label 1
 3  CCCCn1nc(C(C)(C)C)s/c1=N\C(=O)c1cc(C(F)(F)F)ccc1ONC(C)C           label 1
 4  Cn1c(C(C)(C)C)c/c(=N\C(=O)c2cc(Cl)ccc2ONC(C)(C)C)n1C[C@H]1CCCO1           label 0
 5  C/C(=N\Oc1ccc(C(F)(F)F)cc1C(=O)/N=c1\cc(C(C)(C)C)n(C)n1C[C@H]1CCCO1)C(F)(F)F           label 0
 6  CC(C)(C)NOc1ccc(C(F)(F)F)cc1C(=O)/N=c1\sc(C(C)(C)C)nn1CCCC(F)(F)F           label 1
 7  CCCCn1nc(C(C)(C)C)s/c1=N\C(=O)c1cc(C(F)(F)F)ccc1NNC(=O)C(C)(C)C           label 1
 8  CCCCn1nc(C(C)(C)C)s/c1=N\C(=O)c1cc(C(F)(F)F)ccc1NNC(=O)c1ccncc1           label 1
 9  CC(C)(C)NOc1ccc(C(F)(F)F)cc1C(=O)/N=c1\sc(C(C)(C)C)nn1CCCC#N           label 1
10  CCCCn1nc(C(C)(C)C)s/c1=N\C(=O)c1cc(C(F)(F)F)ccc1NN=C(C)C           label 0
11  CCCCn1nc(C(C)(C)C)s/c1=N\C(=O)c1cc(C(F)(F)F)ccc1ON=C(N)C1CC1           label 1
12  CCCCn1nc(C(C)(C)C)s/c1=N\C(=O)c1cc(C(F)(F)F)ccc1NNCc1ccccc1           label 0

###

experimental_target: human CB2 receptors (Homo sapiens (Human), UniProt P34972)
measurement_notes: human CB2 radioligand binding assay ([3H]CP 55,940 competition)
Experimental: The CB1 and CB2 radioligand binding assays described herein are utilized to ascertain the affinity of compounds of the present application for binding to CB2 relative to CB1 receptors. HEK293 cells stably expressing human CB2 receptors were grown until a confluent monolayer was formed. […] The bound activity was counted in a TopCount using Microscint-20. […]
pKi: −log10 of the molar value.
pKi: recorded values
experimental_endpoint: pKi

> print(dat)
                         structure.notation  experimental.endpoint  numeric.value
1  CCCCn1nc(C(C)(C)C)s/c1=N\C(=O)c1cc(C(F)(F)F)ccc1ONC(=O)OC(C)(C)C                    pKi           9.49
2  Cn1c(C(C)(C)C)c/c(=N\C(=O)c2cc(C(F)(F)F)ccc2ONC(C)(C)C)n1CC1CC1                    pKi           7.27
3  CCCCn1/c(=N/C(=O)c2cc(C(F)(F)F)ccc2ONC(C)(C)C)cc(C(C)(C)C)n1C                    pKi           7.11
4  Cn1c(C(C)(C)C)c/c(=N\C(=O)c2cc(C(F)(F)F)ccc2ONC(C)(C)C)n1CCC(F)(F)F                    pKi           7.17

###

EC50: recorded values
experimental_target: rat CB2 (Rattus norvegicus (Rat), UniProt Q9QZN9)
Sequence (Q9QZN9 whole entry): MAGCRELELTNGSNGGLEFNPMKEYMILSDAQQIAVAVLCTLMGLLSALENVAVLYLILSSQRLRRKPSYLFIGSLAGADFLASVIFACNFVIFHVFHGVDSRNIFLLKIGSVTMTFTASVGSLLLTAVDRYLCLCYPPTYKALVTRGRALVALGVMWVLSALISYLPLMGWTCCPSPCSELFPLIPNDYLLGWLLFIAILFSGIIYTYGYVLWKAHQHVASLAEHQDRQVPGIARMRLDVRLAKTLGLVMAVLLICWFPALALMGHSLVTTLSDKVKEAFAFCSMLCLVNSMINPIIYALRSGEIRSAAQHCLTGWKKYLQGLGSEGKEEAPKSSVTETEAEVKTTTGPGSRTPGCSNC
measurement_notes: CB2 cyclase functional assay (HitHunter cAMP)
setup_conditions: HEK cells, forskolin 18 μM
experimental_endpoint: EC50

> print(dat)
                         structure.notation  experimental.endpoint   result
1  CCCCn1nc(C(C)(C)C)s/c1=N\C(=O)c1cc(C(F)(F)F)ccc1ONC(C)C                   EC50  0.22 nM
2  CC(C)(C)NOc1ccc(C(F)(F)F)cc1C(=O)/N=c1\sc(C(C)(C)C)nn1C[C@H]1CCCO1                   EC50  0.24 nM
3  CCCCn1nc(C(C)(C)C)s/c1=N\C(=O)c1cc(C(F)(F)F)ccc1ONC(C)=O                   EC50   1.5 nM

###

experimental_target: rat CB2 (Rattus norvegicus (Rat))
measurement_notes: rat CB2 radioligand binding assay ([3H]CP 55,940 competition)
setup_conditions: HEK293 membranes, 0.5 nM [3H]CP 55,940; read-out: rat CB2 (Ki)
pKi: −log10 of the molar value.
experimental_endpoint: pKi

> print(dat)
                                   molecule  experimental.endpoint  numeric.value
1  CCCCn1nc(C2(C)CC2)s/c1=N\C(=O)c1cc(C(F)(F)F)ccc1ONC(C)(C)C [Example 145]                    pKi           8.60
2  CC(C)(C)NOc1ccc(C(F)(F)F)cc1C(=O)/N=c1\sc(C(C)(C)C)nn1CC1CCCCO1 (stereo not shown) [Example 147]                    pKi           9.15
3  CCCCn1nc(C(C)(C)C)s/c1=N\C(=O)c1cc(Cl)ccc1ONC(C)(C)C [Example 162]                    pKi           9.22
4  CCCCn1nc(C(C)(C)C)s/c1=N\C(=O)c1cc(C(F)(F)F)ccc1ON=C(N)c1cccnc1 [Example 204]                    pKi           7.89

###

experimental_target: rat CB2 (Rattus norvegicus (Rat), UniProt Q9QZN9)
measurement_notes: rat CB2 radioligand binding assay ([3H]CP 55,940 competition)
setup_conditions: HEK293 membranes, 0.5 nM [3H]CP 55,940; read-out: rat CB2 (Ki)
pKi: −log10 of the molar value.
experimental_endpoint: pKi

> print(dat)
                                   compound                       experimental.target  experimental.endpoint  numeric.value
1  CCCCn1nc(C(C)(C)C)s/c1=N\C(=O)c1cc(C(F)(F)F)ccc1ON=C(N)C(=O)OCC [Example 176]  rat CB2 (Rattus norvegicus (Rat), UniProt Q9QZN9)                    pKi           8.77
2  CCCCn1/c(=N/C(=O)c2cc(C(F)(F)F)ccc2NNC(=O)C(C)(C)C)cc(C(C)(C)C)n1C [Example 198]  rat CB2 (Rattus norvegicus (Rat), UniProt Q9QZN9)                    pKi           8.77
3  CCCCn1nc(C(C)(C)C)s/c1=N\C(=O)c1cc(C(F)(F)F)ccc1ONC(C)=O [Example 154]  rat CB2 (Rattus norvegicus (Rat), UniProt Q9QZN9)                    pKi           9.00
4  CCCCn1nc(C(C)(C)C)s/c1=N\C(=O)c1cc(C(F)(F)F)ccc1NNC(=O)c1cccnc1 [Example 197]  rat CB2 (Rattus norvegicus (Rat), UniProt Q9QZN9)                    pKi           9.15
5  CCCCn1nc(C(C)(C)C)s/c1=N\C(=O)c1cc(C(F)(F)F)ccc1ON=C(N)CC [Example 186]  rat CB2 (Rattus norvegicus (Rat), UniProt Q9QZN9)                    pKi           8.57
6  Cn1c(C(C)(C)C)c/c(=N\C(=O)c2cc(C#N)ccc2ONC(C)(C)C)n1C[C@H]1CCCO1 [Example 161]  rat CB2 (Rattus norvegicus (Rat), UniProt Q9QZN9)                    pKi           7.96
7  C/C(=N\Oc1ccc(C(F)(F)F)cc1C(=O)/N=c1\cc(C(C)(C)C)n(C)n1C[C@H]1CCCO1)C(F)(F)F [Example 178]  rat CB2 (Rattus norvegicus (Rat), UniProt Q9QZN9)                    pKi           7.40

###

experimental_target: rat CB2 (Rattus norvegicus (Rat), UniProt Q9QZN9)
measurement_notes: rat CB2 radioligand binding assay ([3H]CP 55,940 competition)
setup_conditions: HEK293 membranes, 0.5 nM [3H]CP 55,940; read-out: rat CB2 (Ki)
Field: label. Allowed values: T (Ki < 3 nM) or F (Ki >= 3 nM).

> print(dat)
                          structure.notation  class.assignment
 1  CCCCn1/c(=N/C(=O)c2cc(C(F)(F)F)ccc2NNC(=O)c2cccnc2)cc(C(C)(C)C)n1C                 T
 2  CCCCn1nc(C(C)(C)C)s/c1=N\C(=O)c1cc(C(F)(F)F)ccc1ON=C(C)C(F)(F)F                 F
 3  CC(C)(C)NOc1ccc(C(F)(F)F)cc1C(=O)/N=c1\sc(C(C)(C)C)nn1CC1CCC1                 T
 4  CCCCn1nc(C(C)(C)C)s/c1=N\C(=O)c1cc(C(F)(F)F)ccc1ON=C(N)c1ccccn1                 F
 5  CC(C)(C)NOc1ccc(C(F)(F)F)cc1C(=O)/N=c1\sc(C(C)(C)C)nn1CCCC(F)(F)F                 T
 6  CCCCn1nc(C(C)(C)C)s/c1=N\C(=O)c1cc(C(F)(F)F)ccc1ON=C(N)C(C)C                 T
 7  CCCCn1nc(C(C)(C)C)s/c1=N\C(=O)c1cc(C(F)(F)F)ccc1NNC(=O)c1ccncc1                 T
 8  CC(C)Cn1nc(C(C)(C)C)s/c1=N\C(=O)c1cc(C(F)(F)F)ccc1ONC(C)(C)C                 F
 9  CCCCn1/c(=N/C(=O)c2cc(C(F)(F)F)ccc2NNC(=O)c2ccncc2)cc(C(C)(C)C)n1C                 T
10  CCCCn1nc(C(C)(C)C)s/c1=N\C(=O)c1cc(C(F)(F)F)ccc1ON=C(N)C(C)(C)C                 F
11  CCCCn1nc(C(C)(C)C)s/c1=N\C(=O)c1cc(C(F)(F)F)ccc1/N=N/C(C)(C)C                 F
12  CCCCn1nc(C(C)(C)C)s/c1=N\C(=O)c1cc(C(F)(F)F)ccc1ON=C1CCCC1                 F
13  CCCCn1/c(=N/C(=O)c2cc(C(F)(F)F)ccc2ONC(C)C)cc(C(C)(C)C)n1C                 F
14  Cn1c(C(C)(C)C)c/c(=N\C(=O)c2cc(Cl)ccc2ONC(C)(C)C)n1C[C@H]1CCCO1                 F

The origin of these recorded values is patent US8859596B2.
